# target: bombesin/GRP receptor (Mus musculus, UniProt P21729)
# Construct: The pancreata from one or more mice were pooled and homogenized; from tissue; host or cells: mouse pancreas membranes
# Sequence (P21729 whole entry): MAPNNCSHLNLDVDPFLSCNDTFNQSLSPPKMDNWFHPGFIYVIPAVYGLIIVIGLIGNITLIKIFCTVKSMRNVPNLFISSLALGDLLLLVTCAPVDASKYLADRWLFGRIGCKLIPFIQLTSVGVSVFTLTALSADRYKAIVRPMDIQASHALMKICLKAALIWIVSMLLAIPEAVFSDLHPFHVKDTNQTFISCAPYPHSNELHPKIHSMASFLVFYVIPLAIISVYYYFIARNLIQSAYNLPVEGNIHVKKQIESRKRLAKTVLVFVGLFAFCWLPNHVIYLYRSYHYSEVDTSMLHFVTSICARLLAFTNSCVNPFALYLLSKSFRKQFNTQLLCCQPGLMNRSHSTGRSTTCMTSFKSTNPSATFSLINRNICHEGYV
# experimentalProtocol: Competition for 125I-GRP binding to murine pancreatic membranes
# experimentalSetup: competitive binding, mouse pancreas; averages of multiple experiments; read-out: Kd
# Method: The pancreata from one or more mice were pooled and homogenized in 50 mM HEPES (pH 7.4) containing 120 mM NaCl, 5 mM KCl, 1 mM EDTA and protease inhibitors (1 μg/ml aprotinin, leupeptin, pepstatin; 4 μg/ml bacitracin, antipain, bestatin; 100 μM PMSF) at 4° C. and centrifuged at 37,500 X g for 15 minutes. […] Filter-bound radioactivity was quantitated in a gamma counter. […] Affinity and maximal binding were calculated with LIGAND (Biosoft, Cambridge, UK) (FIGS. 1 and FIG. 2) […]
Where a SMILES comes first, the peptide text is derived from it. [ ]: non-standard residue; d: D form. The star is where a group is joined. X2 = CC(C)C[C@@H](CN[C@@H](CC(C)C)C(N)=O)N*; pGlu = O=C1CC[C@@H](C(=O)O)N1
Reported Kd values for a set of molecules
Answer format: numeric, nM implied, no suffix.

[
  {
    "molecule": "CC(C)C[C@@H](C(N)=O)[S+]([O-])C[C@H](Cc1ccccc1)NC(=O)[C@H](Cc1c[nH]cn1)NC(=O)CNC(=O)[C@@H](NC(=O)[C@H](C)NC(=O)[C@H](Cc1c[nH]c2ccccc12)NC(=O)[C@H](CCC(N)=O)NC(=O)[C@@H]1CCC(=O)N1)C(C)C (single isomer, unassigned) [[Phe^8 .psi.[CH2 S(O)]Leu^9]litorin I]",
    "unitsLabel": "nM",
    "reported": 1.8
  },
  {
    "molecule": "CSCC[C@H](NC(=O)[C@H](Cc1ccccc1)NC(=O)[C@H](Cc1c[nH]cn1)NC(=O)CNC(=O)[C@@H](NC(=O)[C@H](C)NC(=O)[C@H](Cc1c[nH]c2ccccc12)NC(=O)[C@H](CCC(N)=O)NC(=O)[C@@H]1CCC(=O)N1)C(C)C)C(N)=O [Litorin, reference compound]",
    "unitsLabel": "nM",
    "reported": 0.075
  },
  {
    "molecule": "CC(C)C[C@@H](C(N)=O)[S+]([O-])C[C@H](Cc1ccccc1)NC(=O)[C@H](Cc1c[nH]cn1)NC(=O)CNC(=O)[C@@H](NC(=O)[C@H](C)NC(=O)[C@H](Cc1c[nH]c2ccccc12)NC(=O)[C@H](CCC(N)=O)NC(=O)[C@@H]1CCC(=O)N1)C(C)C (single isomer, unassigned) [[Phe^8 .psi.[CH2 S(O)]Leu^9]litorin II]",
    "unitsLabel": "nM",
    "reported": 1
  }
]

Next:
Entry CC(C)C[C@@H](CN[C@@H](CC(C)C)C(N)=O)NC(=O)[C@H](Cc1cnc[nH]1)NC(=O)CNC(=O)[C@@H](NC(=O)[C@H](C)NC(=O)[C@H](Cc1c[nH]c2ccccc12)NC(=O)[C@H](CCC(N)=O)NC(=O)[C@H](CC(N)=O)NC(=O)CNC(=O)[C@H](CC(C)C)NC(=O)[C@H](CCCN=C(N)N)NC(=O)[C@H](CCC(N)=O)NC(=O)[C@@H]1CCC(=O)N1)C(C)C [[Leu^13 .psi.{CH2 NH]Leu^14]bombesin, reference compound] ([pGlu]QRLGNQWAVGH-X2) has what Kd?
8
